experimental-protocol: PK in dog
condition-set: in vivo, IV 3 mg/kg

>  <compound>
CCC(C)(C)C(=O)N(O)Cc1ccccc1 [Compound 92, reference compound]

>  <half-life (h)>
1.2

$$$$

====

experimental-protocol: PK in dog
condition-set: in vivo, IV 2 mg/kg
measurement-label: half-life

>  <compound>
CCC(C)(C)C(=O)N(O)Cc1cc(F)cc(F)c1 [Compound 13]

>  <reported-measurement>
1.02 h

$$$$

====

experimental-protocol: PK in monkey
condition-set: in vivo, PO 100 mg/kg

>  <molecule-smiles>
CCC(C)(C)C(=O)N(O)Cc1cc(F)cc(F)c1

>  <AUC(0-inf) (ng·h/mL)>
41600

$$$$
